# systemName: T1, Ara h 2 (peanut, UniProt Q6PSU2 22-172)
# T1 construct: also called full length Ara h 2
# T1 sequence (looked up): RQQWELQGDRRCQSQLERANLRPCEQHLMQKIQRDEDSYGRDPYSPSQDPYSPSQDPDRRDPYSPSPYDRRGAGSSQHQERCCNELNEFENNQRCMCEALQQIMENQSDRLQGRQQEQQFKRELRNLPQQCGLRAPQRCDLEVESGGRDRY
# assayText: competition ELISA on coated Ara h 2; competitor: Patient C serum IgE

{"binder": "h32B10 (antibody, V domains shown, Recombinant human IgG; also called hMAb 32B10) VH: QVQLVQSGAEVKKPGASVKVSCRASGYIFRNFDINWVRQATGQGLEWMGWMSPKSGDTGYAQKFQGRVTMTRDTSINTAYMELSSLTSEDSAVYYCARGVDGTNWGQGTRVTVSS VL: DIVMTQSPDSLGVSLGERATISCKSSQSILDNSNNKNFIAWFQQKPGQPPKLLIYWASARESGVPDRFSGSGSGTEFTLTINSLQAEDVAVYYCYQYYSTPHTFGQGTKLDLR", "% inhibition of IgE binding [%]": 21}
{"binder": "h4B2 (antibody, V domains shown, Recombinant human IgG; also called hMAb 4B2) VH: QVQLQEAGPRLVKPSQTLSVTCTVSGASITIGGYYWSWIRQHPGKGLEWMGYIYSNGRTYYNPSLKSRIAMSIDTSKNQFSLKLTSVTAADTAIYFCAREAWETPLWGQGTLITVSS VL: DIQMTQSPSSLSASVGDRVTITCQANQDIVNSLNWFQHKPGTAPKVLIYDASKLETGVPSRFSGSGSGTHFTFTISGLQPEDFATYFCQQYENLPHTFGQGTKLEIR", "% inhibition of IgE binding [%]": 13.3}
{"binder": "h12G10 (antibody, human IgG1, V domains shown, Recombinant human IgG; also called hMAb 12G10) VH: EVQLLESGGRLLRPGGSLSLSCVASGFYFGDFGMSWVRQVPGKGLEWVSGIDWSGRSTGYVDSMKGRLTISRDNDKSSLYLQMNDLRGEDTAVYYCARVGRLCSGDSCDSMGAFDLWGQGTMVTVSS VL: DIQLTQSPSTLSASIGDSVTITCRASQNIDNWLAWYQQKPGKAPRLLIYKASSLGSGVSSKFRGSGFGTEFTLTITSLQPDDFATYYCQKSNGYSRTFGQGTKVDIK", "% inhibition of IgE binding [%]": 53.8}
